Below, each of the molecules is paired with its reported pIC50 value.
- Tested on: REL-A (p65) nuclear translocation, HeLa cells
- Assay Explanation: REL-A (p65) nuclear translocation assay in HeLa cells (classical NF-kB signaling, TNF-α stimulated)
- Assay type: cell-based
- Stated Conditions: Homo sapiens, 0.5 h; HeLa cells, 10 ng/mL TNF-α for 30 minutes; read-out: REL-A HeLa Transloc Assay (IC50)
- Procedure: Several assays were developed to profile the cellular activities of NIK inhibitors. (2) A second set of cell assay are used to define the selectivity of NIK inhibitors toward inhibition of classical vs. non-classical NF-kB signaling and rely on quantification of the nuclear translocation of p52 (NF-kB2) and REL-A (p65) using high content cellular imaging. […] Imaging is carried out using an Opera reader (Perkin Elmer) and data are analyzed with the aid of Acapella software (Perkin Elmer). […]
Note on units: pIC50 is unitless, being -log10 of a concentration expressed in mol/L.

{"columns": ["Smiles Representation", "pIC50"],
 "data": [
  ["CCCC(=O)N(C)Cc1ccc2c(c1)c(C(N)=O)nn2-c1cc(C#C[C@]2(O)CCN(C)C2=O)ccn1", 4.70],
  ["C[C@H]1CCc2c1c(C(N)=O)nn2-c1cccc(C#C[C@]2(O)CCN(C)C2=O)c1", 4.70],
  ["CN1CC[C@@](O)(C#Cc2ccnc(-n3nc(C(N)=O)c4c3CCC(C)(C)C4)c2)C1=O", 5.52]
]}

Measured pIC50, CN1CC[C@@](O)(C#Cc2cccc(-n3nc(C(N)=O)c4scnc43)c2)C1=O : 4.70

// recorded pIC50 for Cc1nnc([C@](C)(O)C#Cc2cccc(-n3nc(C(N)=O)c4ccccc43)c2)o1 : 4.70

get_value(item= CN1CC[C@@](O)(C#Cc2cccc(-n3nc(C(N)=O)c4cnccc43)c2)C1=O , readout=pIC50) returns 4.70

Per the records, this molecule ( CN1CC[C@@](O)(C#Cc2cccc(-n3nc(C(N)=O)c4cc(-c5cnn(C)c5)cnc43)c2)C1=O ) has pIC50 equal to 5.70

====

- Target Desc: nuclear factor-kappa B (NF-kB)-inducing kinase (NIK) (Homo sapiens (Human), UniProt Q99558)
- Sequence (Q99558 whole entry): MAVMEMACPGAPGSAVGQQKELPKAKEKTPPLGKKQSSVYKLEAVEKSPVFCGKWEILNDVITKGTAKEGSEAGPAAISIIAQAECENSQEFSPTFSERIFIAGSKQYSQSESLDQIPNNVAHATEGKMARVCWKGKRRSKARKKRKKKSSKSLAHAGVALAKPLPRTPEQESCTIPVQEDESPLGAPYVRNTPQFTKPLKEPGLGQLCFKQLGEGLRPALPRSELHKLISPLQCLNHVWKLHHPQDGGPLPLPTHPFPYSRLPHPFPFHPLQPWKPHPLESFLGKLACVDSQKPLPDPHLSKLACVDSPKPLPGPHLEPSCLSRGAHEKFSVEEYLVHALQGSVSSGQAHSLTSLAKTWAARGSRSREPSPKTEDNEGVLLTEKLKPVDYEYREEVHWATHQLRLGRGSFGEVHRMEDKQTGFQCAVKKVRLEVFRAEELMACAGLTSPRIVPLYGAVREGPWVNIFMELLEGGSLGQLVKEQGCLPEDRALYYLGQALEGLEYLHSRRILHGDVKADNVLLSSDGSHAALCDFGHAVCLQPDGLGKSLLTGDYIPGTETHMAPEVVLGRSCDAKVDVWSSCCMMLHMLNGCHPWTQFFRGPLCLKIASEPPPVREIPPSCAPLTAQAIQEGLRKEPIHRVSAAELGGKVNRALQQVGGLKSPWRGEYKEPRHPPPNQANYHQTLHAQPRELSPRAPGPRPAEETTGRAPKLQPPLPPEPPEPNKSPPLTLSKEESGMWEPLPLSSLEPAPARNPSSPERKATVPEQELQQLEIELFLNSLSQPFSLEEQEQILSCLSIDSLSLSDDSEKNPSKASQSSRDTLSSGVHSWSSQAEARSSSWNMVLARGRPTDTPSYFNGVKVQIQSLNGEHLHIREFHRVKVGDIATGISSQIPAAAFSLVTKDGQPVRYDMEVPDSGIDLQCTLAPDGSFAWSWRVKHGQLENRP
- Assay Explanation: NIK enzyme inhibition assay (Transcreener ADP, NIK ADP-FP)
- Type: biochemical
- Stated Conditions: purified NIK 0.5 nM, 10 μM ATP, fluorescence polarization; read-out: NIK ADP-FP (Ki μM)
Just a reminder that ties go to n: only Ki strictly below 8 nM counts as y.

Before answering, review these 10 worked examples.
{"columns": ["Molecule", "Class Label"],
 "data": [
  ["CN1CC[C@@](O)(C#Cc2cccc(-n3nc(C(N)=O)c4[nH]c(=O)ccc43)c2)C1=O", "y"],
  ["Cc1c(Cl)c(C(N)=O)nn1-c1cc(C#C[C@]2(O)CCN(C)C2=O)ccn1", "n"],
  ["Cc1cc([C@](C)(O)C#Cc2ccnc(-n3nc(C(N)=O)c4c3CCCC4)c2)no1", "n"],
  ["COc1cc2c(C(N)=O)nn(-c3cccc(C#C[C@]4(O)CCN(C)C4=O)c3)c2nn1", "y"],
  ["N#Cc1cc2c(cn1)c(C(N)=O)nn2-c1cccc(C#C[C@@]2(O)CCc3cccnc32)c1", "y"],
  ["C[C@@](O)(C#Cc1cccc(-n2nc(C(N)=O)c3ccccc32)c1)c1ncccn1", "n"],
  ["Cc1cc(C#C[C@]2(O)CCN(C)C2=O)cc(-n2nc(C(N)=O)c3cccnc32)c1", "y"],
  ["CN1CC[C@@](O)(C#Cc2cccc(-n3nc(C(N)=O)c4c(Cl)cccc43)c2)C1=O", "y"],
  ["CN1CC[C@@](O)(C#Cc2cc(Cl)cc(-n3nc(C(N)=O)c4cccnc43)c2)C1=O", "y"],
  ["CN1CC[C@@](O)(C#Cc2ccnc(-n3nc(C(N)=O)c4c3CC3CC4C3)c2)C1=O", "y"]
]}

Please indicate whether the reported Ki of N#Cc1cc2c(cn1)c(C(N)=O)nn2-c1cccc(C#C[C@]2(O)CCc3cccnc32)c1 is strictly below 8 nM.
n

====

- Test system: p52 (NF-kB2) nuclear translocation, HeLa cells
- Assay Explanation: p52 (NF-kB2) nuclear translocation assay in HeLa cells (non-classical NF-kB signaling, anti-lymphotoxin beta receptor antibody stimulated)
- Format: cell-based
- Stated Conditions: Homo sapiens, 100 ng/mL anti-lymphotoxin beta receptor antibody for 5 hours, read-out: p52 HeLa Transloc Assay (IC50)
Measurement Label: IC50
Please answer using the number first and the unit second.

Worked set:
{"columns": ["Molecule", "IC50"],
 "data": [
  ["COc1ccc2c(C(N)=O)nn(-c3cccc(C#C[C@]4(O)CCN(C)C4=O)c3)c2n1 [Compound 154]", "0.0339 µM"],
  ["CN1CC[C@@](O)(C#Cc2cccc(-n3nc(C(N)=O)c4scnc43)c2)C1=O [Compound 144]", "0.0331 µM"],
  ["CN1CC[C@@](O)(C#Cc2cccc(-n3nc(C(N)=O)c4ncccc43)c2)C1=O [Compound 164]", "0.208 µM"]
]}

Would you kindly look at the next entry?
Documented IC50 of CN1CC[C@@](O)(C#Cc2cccc(-n3nc(C(N)=O)c4c3CCC4)c2)C1=O [Compound 119] : 0.0458 µM

====

- Target Desc: nuclear factor-kappa B (NF-kB)-inducing kinase (NIK) (Homo sapiens (Human), UniProt Q99558)
- Assay Explanation: NIK enzyme inhibition assay (Transcreener ADP, NIK ADP-FP)
- Format: biochemical
- Stated Conditions: purified NIK 0.5 nM, 10 μM ATP, fluorescence polarization; read-out: NIK ADP-FP (Ki μM)
Measurement Label: Ki
Please format your answer as a value with the unit trailing.

See these solved cases before continuing.
{"columns": ["Compound", "Readout Value"],
 "data": [
  ["CN1CC[C@@](O)(C#Cc2cccc(-n3nc(C(N)=O)c4cc(CC#N)ccc43)c2)C1=O", "0.32 nM"],
  ["CN1CC[C@@](O)(C#Cc2cccc(-n3nc(C(N)=O)c4cncnc43)c2)C1=O", "0.19 nM"],
  ["CN1CC[C@@](O)(C#Cc2cccc(-n3nc(C(N)=O)c4ccc(Cl)nc43)c2)C1=O", "0.52 nM"],
  ["CN1CC[C@@](O)(C#Cc2cccc(-n3nc(C(N)=O)c4c(NC5CC5)nccc43)c2)C1=O", "0.11 nM"],
  ["CN1CC[C@@](O)(C#Cc2cccc(-n3nc(C(N)=O)c4cc(OCCN5CCC5)ccc43)c2)C1=O", "2.52 nM"],
  ["CN1CC[C@@](O)(C#Cc2cccc(-c3nc(C(N)=O)n4ccc(C(N)=O)cc34)c2)C1=O", "0.1 nM"]
]}

Memo: CN1CC[C@@](O)(C#Cc2cccc(-n3nc(C(N)=O)c4ccc(N5CCOCC5)nc43)c2)C1=O , reported Ki: 0.26 nM

Data point: CN1CC[C@@](O)(C#Cc2cccc(-n3nc(C(N)=O)c4c3C[C@]3(C)C(C4)C3(F)F)c2)C1=O (stereo partly shown) ; Ki = 170 nM

Lab book: Ki of CN1CC[C@@](O)(C#Cc2cccc(-n3nc(C(N)=O)c4cnc(N5CCCC5)cc43)c2)C1=O noted as 0.25 nM

Item: CN1CC[C@@](O)(C#Cc2cccc(-n3nc(C(N)=O)c4c3CCCC4(F)F)c2)C1=O | Ki: 7.62 nM

The measured Ki associated with CN1CC[C@@](O)(C#Cc2cccc(-c3nn(C(N)=O)c4ccccc34)c2)C1=O reads 0.324 nM

Item: CNc1nc2c(s1)c(C(N)=O)nn2-c1cccc(C#C[C@]2(O)CCN(C)C2=O)c1 | Ki: 0.05 nM

====

- System: REL-A (p65) nuclear translocation, HeLa cells
- Assay Explanation: REL-A (p65) nuclear translocation assay in HeLa cells (classical NF-kB signaling, TNF-α stimulated)
- Format: cell-based
- Stated Conditions: Homo sapiens, 0.5 h; HeLa cells, 10 ng/mL TNF-α for 30 minutes; read-out: REL-A HeLa Transloc Assay (IC50)
# pIC50 annotations
Scale for pIC50: -log10 of concentration given in mol/L; no unit attached.

{"columns": ["Smiles Representation", "Measurement Label", "Readout Value"],
 "data": [
  ["CN1CC[C@@](O)(C#Cc2cccc(-n3nc(C(N)=O)c4c3CCC[C@@H]4O)c2)C1=O", "pIC50", 4.70],
  ["COc1cc2c(cn1)c(C(N)=O)nn2-c1cccc(C#C[C@]2(O)CCN(C)C2=O)c1", "pIC50", 5.10],
  ["N#Cc1cc2c(cn1)c(C(N)=O)nn2-c1cccc(C#C[C@@]2(O)CCc3cccnc32)c1", "pIC50", 4.70]
]}

Quick note, pIC50 for CN1CC[C@@](O)(C#Cc2cccc(-n3nc(C(N)=O)c4c(NC5CC5)nccc43)c2)C1=O landed at 5.70

Recorded pIC50 (molecule CN1CC[C@@](O)(C#Cc2cccc(-n3nc(C(N)=O)c4c3CCOC4)c2)C1=O ): 4.70
